Origin of values: patent US11807625B2

assay: PK of compound of Formula (Ia) after single intramuscular dose of solution formulations in Wistar Han rats; assay type: in vivo; settings: Wistar Han, rat, plasma, intramuscular, 100 mg/kg, Solution H (~400 mg/mL); IM 100 mg/kg; Wistar Han rats; mean, n = 4; 48.0 h; read-out: Plasma concentration, Mean
Quantity measured: concentration at 48 h (nM)
One number for each entry, in nM.

Fill blank: measured concentration at 48 h of the compound CC(C)(C#Cc1ccc(-c2ccc(Cl)c3c(NS(C)(=O)=O)nn(CC(F)(F)F)c23)c([C@H](Cc2cc(F)cc(F)c2)NC(=O)Cn2nc(C(F)(F)F)c3c2C(F)(F)[C@@H]2C[C@H]32)n1)S(C)(=O)=O is ____.
471
